The measurements presented in this section are drawn from patent US20230183322A1.

# measuredTarget: S protein of the novel coronavirus SARS-CoV-2 (SARS-CoV-2, UniProt P0DTC2 14-1273)
# measurementNotes: cell-based or functional assay
parameterMeasured: IC50 for neutralizing SARS-CoV-2 pseudovirus (Huh-7 cells, luciferase)

Consider the worked cases shown below.
Query string: Dear colleague, please send me the reported IC50 for neutralizing SARS-CoV-2 pseudovirus (Huh-7 cells, luciferase) for ABU-372 (antibody, V domains shown) VH: EVQLVESGGGLVQPGGSLRLSCAASGVTVSRNYMSWVRQAPGKGLEWVSVIYSGGSTDYADSVKGRFTISRHNSKNTLYLQMNSLRVEDTAVYYCARDGYGMDVWGQGTTVTVSS VL: DIQLTQSPSFLSASVGDRVTITCRASQGISSYLAWYQQKPGKAPNLLIYAASTLQSGVPSRFSGSGSGTEFTLTISSLQPEDFATYYCQQLNSYPPAFGPGTKVDIK when you can.
Result string: < 0.5 µg/mL

Query string: Dear colleague, please send me the reported IC50 for neutralizing SARS-CoV-2 pseudovirus (Huh-7 cells, luciferase) for ABU-257 (antibody, V domains shown) VH: EVQLVESGGGLIQPGGSLRLSCAASGFTVSSNYMSWVRQAPGKGLEWVSVIYSGGSTYYADSVKGRFTISRDNSKNTLYLQMNSLRAEDTAVYYCARVTRAGAAGDGGAFDIWGQGTMVTVSS VL: QSALTQPASVSGSPGQSITISCTGTSSDVGSYNLVSWYQQHPGKAPKLMIYEVSKRPSGVSNRFSGSKSGNTASLTISGLQAEDEADYYCCSYAGSSLWVFGGGTKLTVL when you can.
Result string: < 0.5 µg/mL

Query string: Dear colleague, please send me the reported IC50 for neutralizing SARS-CoV-2 pseudovirus (Huh-7 cells, luciferase) for ABU-360 (antibody, V domains shown) VH: EVQLVESGGGLVQPGGSLRLSCAASEFIVSRNYMSWVRQAPGKGLEWVSVIYSGGSTFYADSVKGRFTISRDNSKNTLYLQMNSLRAEDTGVYYCARDRGLVSDYWGQGTLVTVSS VL: DIQMTQSPSSLSASVGDRVTITCQASQDINKYLNWYQQKPGKAPKLLIFDASHLETGVPSRFSASGSGTDFTFTISSLQPEDIATYYCHQYDNLPRTFGQGTRLEIK when you can.
Result string: < 0.1 µg/mL

Query string: Dear colleague, please send me the reported IC50 for neutralizing SARS-CoV-2 pseudovirus (Huh-7 cells, luciferase) for ABU-349 (antibody, V domains shown) VH: EVQLVESGGGLIQPGGSLRLSCAASGFTVSRNYMSWVRQAPGKGLEWVSLIYSGGSTFYADSVKGRFTISRDNSKNTLYLQMNTLRSEDTAVYYCARDLVVYGMDVWGQGTTVTVSS VL: DIQLTQSPSFLSASVGDRVTITCRASQGISSYLAWYQQKPGKAPKLLIYAASTLQVGVPSRFSGSGSGTEFTLTISSLQPEDFATYFCQQLNSYPFTFGPGTKVDIK when you can.
Result string: < 0.1 µg/mL

Others:
Query string: Dear colleague, please send me the reported IC50 for neutralizing SARS-CoV-2 pseudovirus (Huh-7 cells, luciferase) for ABU-190 (antibody, V domains shown) VH: EVQLVESGGGLIQPGGSLRLSCAASGITVSSNYMSWVRQAPGKGLEWVSVIYSGGSTDYADSVKGRFTISRDKSKNTLYLQMNSLRAEDTAVYYCARDLGEAGGMDVWGQGTTVTVSS VL: AIQLTQSPSSLSASVGDRVTITCRASQGISSYLAWYQQKPGKAPKLLIYAASTLQSGVPSRFSGSGSGTDFTLTISSLQPEDFATYYCQQLNSYPPAFGGGTKVEIK when you can.
Result string: < 0.1 µg/mL
